Source: patent US10392422B2

Tested on: Methicillin Resistant Staphylococcus aureus strain USA 300 (NRS384)
MEASUREMENT DESCRIPTION: MIC, broth micro-dilution technique (CLSI)
Type: cell-based
TEST SETTINGS: Staphylococcus aureus, 22 h, read-out: MIC (μg/mL) S. aureus
Protocol: In vitro antimicrobial activity of each compound was determined by measuring minimal inhibitor concentrations (MICs) using the broth micro-dilution technique as approved by the Clinical and Laboratory Standards Institute (CLSI) (Methods for Dilution Antimicrobial Susceptibility Tests for Bacteria that Grow Aerobically; Approved Standard—Eighth Edition. CLSI document M07-A8. Wayne, Pa.: Clinical and Laboratory Standards; 2009). […]
EXPERIMENTAL ENDPOINT: MIC (µg/mL)
One number for each entry, in µg/mL.

>  <COMPOUND STRUCTURE STRING>
CCCCCCCCc1ccc(C(=O)N[C@@H](CCCN)C(=O)N(C)[C@@H]2C(=O)N[C@@H](C)C(=O)N[C@H](C(=O)O)Cc3ccc(OCCN)c(c3)-c3cc2ccc3OCCN)c(C)c1

>  <VALUE OBSERVED>
0.063

$$$$
>  <COMPOUND STRUCTURE STRING>
C[C@H](NC(=O)[C@@H]1Cc2ccc(O)c(c2)-c2cc(ccc2O)[C@H](N(C)C(=O)[C@H](CCCCN)NC(=O)c2ccc(-c3ccc(Cl)cc3)cc2)C(=O)N[C@@H](C)C(=O)N1)C(=O)CO

>  <VALUE OBSERVED>
1

$$$$

Reported MIC ( CCCCCCCCCCC(=O)N[C@@H](CCN)C(=O)N(C)[C@@H]1C(=O)N[C@@H](C)C(=O)N[C@H](C(=O)O)Cc2ccc(OCCN)c(c2)-c2cc1ccc2OCCN ) = 1

###

System: MRSA COL (NRS100)
MEASUREMENT DESCRIPTION: MIC, broth micro-dilution technique (CLSI)
Type: cell-based, Staphylococcus aureus
TEST SETTINGS: Staphylococcus aureus, 22 h, read-out: MIC (μg/mL) (COL)
Record form. Attribute: MIC. Fill in for each entry.
Give bare numbers, in µg/mL.

// below: answered compounds
>  <COMPOUND STRUCTURE STRING>
CC(=O)OCC(=O)[C@H](C)NC(=O)[C@@H]1Cc2ccc(O)c(c2)-c2cc(ccc2OCCN)[C@H](N(C)C(=O)[C@H](CCCCN)NC(=O)c2ccc(-c3ccc(Cl)cc3)cc2)C(=O)N[C@@H](C)C(=O)N1

>  <MIC (µg/mL)>
0.22

$$$$
>  <COMPOUND STRUCTURE STRING>
C[C@@H]1NC(=O)[C@@H](N(C)C(=O)[C@H](CCCCN)NC(=O)c2ccc(-c3ccc(Cl)cc3)cc2)c2ccc(OCCN)c(c2)-c2cc(ccc2OCCN)C[C@@H](C(=O)O)NC1=O

>  <MIC (µg/mL)>
0.5

$$$$
>  <COMPOUND STRUCTURE STRING>
CCCCCCCCc1ccc(C(=O)N[C@@H](CCCN)C(=O)N(C)[C@@H]2C(=O)N[C@@H](C)C(=O)N[C@H](C(=O)N[C@@H](C)B3O[C@@H]4C[C@@H]5C[C@@H](C5(C)C)[C@]4(C)O3)Cc3ccc(OC)c(c3)-c3cc2ccc3OC)cc1

>  <MIC (µg/mL)>
1

$$$$
>  <COMPOUND STRUCTURE STRING>
CCCCc1ccc(-c2ccc(C(=O)N[C@@H](CCCCN)C(=O)N(C)[C@@H]3C(=O)N[C@@H](C)C(=O)N[C@H](C(=O)NCc4nnn[nH]4)Cc4ccc(OCCN)c(c4)-c4cc3ccc4OCCN)cc2)cc1

>  <MIC (µg/mL)>
0.5

$$$$

Reported MIC ( CCCCCCCCCC(=O)N[C@@H](CCN)C(=O)N(C)[C@@H]1C(=O)N[C@@H](C)C(=O)N[C@H](C(=O)O)Cc2ccc(OCCN)c(c2)-c2cc1ccc2OCCN ) = 1

###

System: Methicillin Resistant Staphylococcus aureus strain USA 300 (NRS384)
MEASUREMENT DESCRIPTION: MIC, broth micro-dilution technique (CLSI)
Assay type: cell-based
TEST SETTINGS: Staphylococcus aureus, 22 h, read-out: MIC (μg/mL) S. aureus
# strict inequality: MIC < 2 µg/mL yields condition met, everything else yields condition not met

>  <COMPOUND STRUCTURE STRING>
C[C@@H]1NC(=O)[C@@H](N(C)C(=O)[C@H](CCCCN)NC(=O)Cc2ccc(-c3ccc(Cl)cc3)cc2)c2ccc(OCCN)c(c2)-c2cc(ccc2OCCN)C[C@@H](C(=O)O)NC1=O

>  <SYSTEM NAME>
Methicillin Resistant Staphylococcus aureus strain USA 300 (NRS384)

>  <CATEGORY LABEL>
condition not met

$$$$
>  <COMPOUND STRUCTURE STRING>
C[C@@H]1NC(=O)[C@@H](N(C)C(=O)[C@H](CCCCN)NC(=O)c2ccc(-c3ccc(Cl)cc3)cc2)c2ccc(O)c(c2)-c2cc(cc(Br)c2O)C[C@@H](C(=O)O)NC1=O

>  <SYSTEM NAME>
Methicillin Resistant Staphylococcus aureus strain USA 300 (NRS384)

>  <CATEGORY LABEL>
condition not met

$$$$
>  <COMPOUND STRUCTURE STRING>
CC[C@H](NC(=O)[C@@H]1Cc2ccc(O)c(c2)-c2cc(ccc2O)[C@H](N(C)C(=O)[C@H](CCCCN)NC(=O)c2ccc(-c3ccc(Cl)cc3)cc2)C(=O)N[C@@H](C)C(=O)N1)C(C)=O

>  <SYSTEM NAME>
Methicillin Resistant Staphylococcus aureus strain USA 300 (NRS384)

>  <CATEGORY LABEL>
condition not met

$$$$
>  <COMPOUND STRUCTURE STRING>
CCOS(=O)(=O)/C=C/[C@H](C)NC(=O)[C@@H]1Cc2ccc(O)c(c2)-c2cc(ccc2O)[C@H](N(C)C(=O)[C@H](CCCCN)NC(=O)c2ccc(-c3ccc(Cl)cc3)cc2)C(=O)N[C@@H](C)C(=O)N1

>  <SYSTEM NAME>
Methicillin Resistant Staphylococcus aureus strain USA 300 (NRS384)

>  <CATEGORY LABEL>
condition not met

$$$$
>  <COMPOUND STRUCTURE STRING>
CCCCCCCCc1ccc(C(=O)N[C@@H](CCN)C(=O)N(C)[C@@H]2C(=O)N[C@@H](C)C(=O)N[C@H](C(=O)O)Cc3ccc(OCCN)c(c3)-c3cc2ccc3OCCN)c(C)c1

>  <SYSTEM NAME>
Methicillin Resistant Staphylococcus aureus strain USA 300 (NRS384)

>  <CATEGORY LABEL>
condition met

$$$$

Ask | Is the reported MIC for CCCCCCCCCCNCCS(=O)(=O)N[C@@H](CCN)C(=O)N(C)[C@@H]1C(=O)N[C@@H](C)C(=O)N[C@H](C(=O)N[C@@H](C)C(C)=O)Cc2ccc(O)c(c2)-c2cc1ccc2O strictly below 2 µg/mL?
Reply | condition met

Ask | Is the reported MIC for CCCCCCCCCCNCCC(=O)N[C@@H](CCCCN)C(=O)N(C)[C@@H]1C(=O)N[C@@H](C)C(=O)N[C@H](C(=O)N[C@@H](C)C(C)=O)Cc2ccc(O)c(c2)-c2cc1ccc2O strictly below 2 µg/mL?
Reply | condition not met

Ask | Is the reported MIC for C[C@@H]1NC(=O)[C@@H](N(C)C(=O)[C@H](CCCCN)NC(=O)c2ccc(-c3ccc(Cl)cc3)cc2)c2ccc(O)c(c2)-c2cc(ccc2O)C[C@@H](C(=O)N[C@@H](C)C(=O)C(=O)O)NC1=O strictly below 2 µg/mL?
Reply | condition not met

Ask | Is the reported MIC for C[C@H](NC(=O)CCC(=O)[C@H](C)NC(=O)[C@@H]1Cc2ccc(O)c(c2)-c2cc(ccc2O)[C@H](N(C)C(=O)[C@H](CCCCN)NC(=O)c2ccc(-c3ccc(Cl)cc3)cc2)C(=O)N[C@@H](C)C(=O)N1)C(=O)O strictly below 2 µg/mL?
Reply | condition not met

Ask | Is the reported MIC for CCCCCCCCCCCCCC(=O)N[C@@H](CC)C(=O)N(C)[C@@H]1C(=O)N[C@@H](C)C(=O)N[C@H](C(=O)O)Cc2ccc(OCCN)c(c2)-c2cc1ccc2OCCN strictly below 2 µg/mL?
Reply | condition met

Ask | Is the reported MIC for CCCCCCCCc1ccc(C(=O)N[C@@H](CO)C(=O)N(C)[C@@H]2C(=O)N[C@@H](C)C(=O)N[C@H](C(=O)O)Cc3ccc(OCCN)c(c3)-c3cc2ccc3OCCN)c(C)c1 strictly below 2 µg/mL?
Reply | condition met

Ask | Is the reported MIC for CCCCCCCCCCCCCC(=O)N(C)[C@@H]1C(=O)N[C@@H](C)C(=O)N[C@H](C(=O)N[C@@H](C)B2O[C@@H]3C[C@@H]4C[C@@H](C4(C)C)[C@]3(C)O2)Cc2ccc(OCCN)c(c2)-c2cc1ccc2OCCN strictly below 2 µg/mL?
Reply | condition met

Ask | Is the reported MIC for C[C@@H]1NC(=O)[C@@H](N(C)C(=O)[C@H](CCCCN)NC(=O)c2ccc(-c3ccc(Cl)cc3)cc2)c2ccc(O)c(c2)-c2cc(ccc2O)C[C@@H](C(=O)N[C@@H](C)/C=C/S(C)(=O)=O)NC1=O strictly below 2 µg/mL?
Reply | condition not met

Ask | Is the reported MIC for C[C@H](NC(=O)[C@@H]1Cc2ccc(O)c(c2)-c2cc(ccc2OCCN)[C@H](N(C)C(=O)[C@H](CCCCN)NC(=O)c2ccc(-c3ccc(Cl)cc3)cc2)C(=O)N[C@@H](C)C(=O)N1)C(=O)CO strictly below 2 µg/mL?
Reply | condition met

Ask | Is the reported MIC for C[C@H](NC(=O)[C@@H]1Cc2ccc(O)c(c2)-c2cc(ccc2O)[C@H](N(C)C(=O)[C@H](CCCCN)NC(=O)c2ccc(-c3ccc(Cl)cc3)cc2)C(=O)N[C@@H](C)C(=O)N1)B1O[C@@H]2C[C@@H]3C[C@@H](C3(C)C)[C@]2(C)O1 strictly below 2 µg/mL?
Reply | condition not met

Ask | Is the reported MIC for C[C@@H]1NC(=O)[C@@H](N(C)C(=O)[C@H](CCCCN)NC(=O)c2ccc(-c3cc(Cl)cc(Cl)c3)cc2)c2ccc(OCCN)c(c2)-c2cc(ccc2OCCN)C[C@@H](C(=O)O)NC1=O strictly below 2 µg/mL?
Reply | condition met

Ask | Is the reported MIC for CC(=O)[C@H](C)NC(=O)[C@@H]1Cc2ccc(O)c(c2)-c2cc(ccc2O)[C@H](N(C)C(=O)[C@H](CCCCN)NC(=O)c2ccc(-c3ccc(Cl)cc3)cc2)C(=O)N[C@@H](C)C(=O)N1 strictly below 2 µg/mL?
Reply | condition not met
